A collection of sequences and their measured switch fluorescence ratio
system: ATP; assay: switch fluorescence ratio, 500 uM ATP over buffer (Cy3 cluster intensity, sum of 5 cycles each) (fold (ratio)); higher = stronger signal-on switching upon ATP binding; sequences stand for … in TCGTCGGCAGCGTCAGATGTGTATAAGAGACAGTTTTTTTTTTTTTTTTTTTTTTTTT…TC; settings: aptamer strand: ATP DNA aptamer (quencher-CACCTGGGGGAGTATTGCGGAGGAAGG + anchor), 100 nM annealed; ATP concentration: 500 uM;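 also: ATP exposure 15 min at 22 °C before imaging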
I'd appreciate a reply containing only the number, no unit.

Examples with answers:
[
  {
    "ordered-residues": "CGTTAGGTAT",
    "study-system": "ATP",
    "switch fluorescence ratio": 0.969
  },
  {
    "ordered-residues": "TTGGGGGGCA",
    "study-system": "ATP",
    "switch fluorescence ratio": 1.32
  },
  {
    "ordered-residues": "CGGTAGATCG",
    "study-system": "ATP",
    "switch fluorescence ratio": 1
  },
  {
    "ordered-residues": "TCACTGTCGC",
    "study-system": "ATP",
    "switch fluorescence ratio": 1.13
  },
  {
    "ordered-residues": "TGGGGGTTAG",
    "study-system": "ATP",
    "switch fluorescence ratio": 1.01
  },
  {
    "ordered-residues": "GTTTAATCCG",
    "study-system": "ATP",
    "switch fluorescence ratio": 0.975
  },
  {
    "ordered-residues": "AATGGTTGTG",
    "study-system": "ATP",
    "switch fluorescence ratio": 1
  },
  {
    "ordered-residues": "GACGGGTGAG",
    "study-system": "ATP",
    "switch fluorescence ratio": 0.992
  },
  {
    "ordered-residues": "ATATTCTGGG",
    "study-system": "ATP",
    "switch fluorescence ratio": 0.969
  },
  {
    "ordered-residues": "TCCTATGGGG",
    "study-system": "ATP",
    "switch fluorescence ratio": 0.989
  }
]

query: Read the entry CTGATGTCGT and write its reported switch fluorescence ratio.
result: 1.01

query: Read the entry TTGTTGGCCG and write its reported switch fluorescence ratio.
result: 0.964

query: Read the entry TTTGCGGACC and write its reported switch fluorescence ratio.
result: 1.05

query: Read the entry AAGCTGGCGG and write its reported switch fluorescence ratio.
result: 0.991

query: Read the entry GGCCCAGTAG and write its reported switch fluorescence ratio.
result: 1.14

query: Read the entry CAGTTCCCGG and write its reported switch fluorescence ratio.
result: 1.02

query: Read the entry TACGGTTGCA and write its reported switch fluorescence ratio.
result: 1.01

query: Read the entry AGGTGGTGGG and write its reported switch fluorescence ratio.
result: 1.01

query: Read the entry CGCCAACAAC and write its reported switch fluorescence ratio.
result: 1.78

query: Read the entry TAATAAATGT and write its reported switch fluorescence ratio.
result: 0.994
